Every entry's value here was drawn from patent US8859549B2.

Measured on: KCNQ 2/3 channels (Homo sapiens, UniProt O43525+O43526)
Test protocol: KCNQ 2/3 channel activation, thallium flux FLIPR assay (BTC-AM dye)
Test context: HEK293 cells stably expressing human KCNQ2 and KCNQ3 subunits; thallium-induced fluorescence, 4 min compound incubation
Parameter measured: pEC50
Please keep in mind that pEC50 is minus log10 of the molar concentration; only the number is needed.

compound="CC(C)(C)OC(=O)N1CCN(C(=O)c2nn(NC(=O)CC3CC4CCC3C4)c(=O)c3ccccc23)CC1 (racemic)" parameter_measured=pEC50 reported=5.30
compound=O=C(Cc1ccc(Cl)cc1)Nn1nc(SCc2ccccc2)c2ccccc2c1=O parameter_measured=pEC50 reported=7.52
compound=O=C(Cc1ccc(Cl)cc1)Nn1nc(S(=O)(=O)c2ccc(Br)cc2)c2ccccc2c1=O parameter_measured=pEC50 reported=7.31
compound=O=C(Cc1cc(F)cc(F)c1)Nn1nc(Oc2ccccc2)c2ccccc2c1=O parameter_measured=pEC50 reported=7.50
compound=CC(C)(C)OC(=O)NCc1nn(NC(=O)Cc2ccc(F)cc2)c(=O)c2ccccc12 parameter_measured=pEC50 reported=5.00
compound="CC1CN(c2nn(NC(=O)Cc3cc(F)cc(F)c3)c(=O)c3ccccc23)CC(C)O1 (centres unmarked)" parameter_measured=pEC50 reported=6.32
compound=CC(C)(C)CC(=O)Nn1nc(N2CCOCC2)c2ccccc2c1=O parameter_measured=pEC50 reported=4.93

Let us examine a further case.
(Q) # query: pEC50 of entry `O=C(Cc1cc(F)cc(F)c1)Nn1nc(Cc2ccc(Cl)nc2)c2ccccc2c1=O`
(A) 6.48

====

Measured pEC50 accompanies every entry in the list below.
Measured on: KCNQ 2/3 channels (Homo sapiens, UniProt O43525+O43526)
Test protocol: KCNQ 2/3 channel activation, thallium flux FLIPR assay (BTC-AM dye)
Test context: HEK293 cells stably expressing human KCNQ2 and KCNQ3 subunits; thallium-induced fluorescence, 4 min compound incubation
Please report pEC50 as the negative decimal logarithm of the molar concentration, giving only the number.

Examples with their reported pEC50 follow.
compound="Cc1ccsc1-c1nn(NC(=O)Cc2ccc(Cl)cc2)c(=O)c2ccccc12 [Example 15]" reported=6.07
compound="CC(C)(C)OC(=O)c1nn(NC(=O)CC2CC3CCC2C3)c(=O)c2ccccc12 (racemic) [Example 94]" reported=7.12
compound="CCOC(=O)NCc1nn(NC(=O)Cc2ccc(Cl)cc2)c(=O)c2ccccc12 [Example 85]" reported=5.27
compound="CC(C)(C)OC(=O)NCc1nn(NC(=O)CC2CCC(F)(F)CC2)c(=O)c2ccccc12 [Example 124]" reported=5.09
compound="Cc1ccsc1-c1nn(NC(=O)Cc2cc(F)cc(F)c2)c(=O)c2ccccc12 [Example 14]" reported=6.53
compound="O=C(CC1CC2CCC1C2)Nn1nc(C(=NO)c2ccccc2)c2ccccc2c1=O (racemic) [Example 120]" reported=5.50

Next, consider the following compound.
(Q) # query: pEC50 | item CC(C)(CC(=O)Nn1nc(-c2ccnc(Cl)c2)c2ccccc2c1=O)c1ccccc1 [Example 48] | system: KCNQ 2/3 channels (Homo sapiens, UniProt O43525+O43526)
(A) 6.41

====

Measured on: KCNQ 2/3 channels (Homo sapiens, UniProt O43525+O43526)
Construct: expressed in transfected cells; host or cells: HEK293
Test protocol: KCNQ 2/3 channel activation, thallium flux FLIPR assay (BTC-AM dye)
Format: cell-based
Test context: HEK293, maximum response relative to the response of 10 μM retigabine (set at 100%); HEK293 KCNQ2/KCNQ3 cells; read-out: % MAX
Parameter measured: Emax

Previously resolved entries follow.
molecule=Cc1ccc(C)c(CC(=O)Nn2nc(N3CCOCC3)c3ccccc3c2=O)c1 reported=3%
molecule=O=C(Cc1cc(F)cc(F)c1)Nn1nc(S(=O)(=O)Cc2ccccc2)c2ccccc2c1=O reported=45%

(Q) Which measured Emax belongs to `O=C(Cc1ccc(OCc2ccccc2)cc1)Nn1nc(N2CCOCC2)c2ccccc2c1=O` , tested on KCNQ 2/3 channels (Homo sapiens, UniProt O43525+O43526)?
(A) 22%

====

Measured on: KCNQ 2/3 channels (Homo sapiens, UniProt O43525+O43526)
Construct: expressed in transfected cells; host or cells: HEK293
Test protocol: KCNQ 2/3 channel activation, thallium flux FLIPR assay (BTC-AM dye)
Format: cell-based
Test context: HEK293, maximum response relative to the response of 10 μM retigabine (set at 100%); HEK293 KCNQ2/KCNQ3 cells; read-out: % MAX
Parameter measured: Emax
Remember to put the unit after the number in your answer.

compound=COc1ccc(CC(=O)Nn2nc(N3CCOCC3)c3ccccc3c2=O)c(OC)c1 reported=34.2%

(Q) I'm curious: which Emax was measured for O=C(CC1CC2CCC1C2)Nn1nc(S(=O)(=O)c2ccccc2)c2ccccc2c1=O (racemic) tested on KCNQ 2/3 channels (Homo sapiens, UniProt O43525+O43526)?
(A) 179%

(Q) KCNQ 2/3 channels (Homo sapiens, UniProt O43525+O43526) / Emax / `CC(C)(C)OC(=O)NCc1nn(NC(=O)CC2CCC(F)(F)CC2)c(=O)c2ccccc12` : value?
(A) 72.5%

====

Measured on: KCNQ 2/3 channels (Homo sapiens, UniProt O43525+O43526)
Test protocol: KCNQ 2/3 channel activation, thallium flux FLIPR assay (BTC-AM dye)
Test context: HEK293 cells stably expressing human KCNQ2 and KCNQ3 subunits; thallium-induced fluorescence, 4 min compound incubation
Parameter measured: EC50 (nM)
Provide only the numeric value, understood in nM.

compound="O=C(CC1CC2CCC1C2)Nn1nc(-c2ccnc(C(=O)O)c2)c2ccccc2c1=O (racemic) [Example 75]" measured_on="KCNQ 2/3 channels (Homo sapiens, UniProt O43525+O43526)" reported=4120

(Q) What is its EC50 for KCNQ 2/3 channels (Homo sapiens, UniProt O43525+O43526)? Entry: O=C(Cc1cc(F)cc(F)c1)Nn1nc(S(=O)(=O)c2ccccc2)c2ccccc2c1=O [Example 68]
(A) 69.9

(Q) Find EC50 (KCNQ 2/3 channels (Homo sapiens, UniProt O43525+O43526)) for the entry N#Cc1ccc(S(=O)(=O)c2nn(NC(=O)Cc3cc(F)cc(F)c3)c(=O)c3ccccc23)cc1 [Example 223]
(A) 149

(Q) API: value(readout=EC50, system=KCNQ 2/3 channels (Homo sapiens, UniProt O43525+O43526)) for record O=C(Cc1cc(F)cc(F)c1)Nn1nc(N2CCCC2)c2ccccc2c1=O [Example 20]
(A) 214

====

Measured on: KCNQ 2/3 channels (Homo sapiens, UniProt O43525+O43526)
Test protocol: KCNQ 2/3 channel activation, thallium flux FLIPR assay (BTC-AM dye)
Test context: HEK293 cells stably expressing human KCNQ2 and KCNQ3 subunits; thallium-induced fluorescence, 4 min compound incubation
Parameter measured: pEC50
Please keep in mind that pEC50 is minus log10 of the molar concentration; only the number is needed.

Some solved entries appear below for comparison.
molecule=O=C(Cc1ccc(Cl)cc1)Nn1nc(Cc2ccc(Cl)nc2)c2ccccc2c1=O reported=6.83
molecule=CC(C)(C)COC(=O)NCc1nn(NC(=O)Cc2ccc(Cl)cc2)c(=O)c2ccccc12 reported=5.88
molecule=O=C(Cc1ccc(Cl)cc1)Nn1nc(Sc2ccccc2)c2ccccc2c1=O reported=7.08

(Q) What measured pEC50 goes with O=C(CC1CC2CCC1C2)Nn1nc(S(=O)(=O)Cc2ccccc2)c2ccccc2c1=O (racemic) ?
(A) 7.13

(Q) For the molecule shown here, `C[C@@H]1CN(c2nn(NC(=O)Cc3ccc(Cl)cc3)c(=O)c3ccccc23)C[C@H](C)O1` , give the reported pEC50.
(A) 6.18

(Q) Entry `CC(C)COC(=O)NCc1nn(NC(=O)Cc2ccc(Cl)cc2)c(=O)c2ccccc12` has what pEC50?
(A) 5.91

(Q) Which measured pEC50 value corresponds to O=C(CC1CC2CCC1C2)Nn1nc(Cc2cc[n+]([O-])cc2)c2ccccc2c1=O (racemic) ?
(A) 6.04

(Q) Fill blank: measured pEC50 of the molecule O=C(CC1CC2CCC1C2)Nn1nc(N2CCSCC2)c2ccccc2c1=O (racemic) is ____.
(A) 7.11

====

Form field: Emax (one value per entry).
Measured on: KCNQ 2/3 channels (Homo sapiens, UniProt O43525+O43526)
Construct: expressed in transfected cells; host or cells: HEK293
Test protocol: KCNQ 2/3 channel activation, thallium flux FLIPR assay (BTC-AM dye)
Assay type: cell-based
Test context: HEK293, maximum response relative to the response of 10 μM retigabine (set at 100%); HEK293 KCNQ2/KCNQ3 cells; read-out: % MAX
// return numeric value only (unit: %, not printed)

molecule="O=C(CC1CC2CCC1C2)Nn1nc(-c2ccc(F)nc2)c2ccccc2c1=O (racemic) [Example 54]" reported=183
molecule="CN(Cc1ccccc1)c1nn(NC(=O)CC2CC3CCC2C3)c(=O)c2ccccc12 (racemic) [Example 37]" reported=160
molecule="O=C(CC1CC2CCC1C2)Nn1nc(CNC(=O)OCc2ccccc2)c2ccccc2c1=O (racemic) [Example 96]" reported=79.4

As a next step, examine the molecule that follows.
(Q) Recorded Emax for O=C(CC1CC2CCC1C2)Nn1nc(C(=O)O)c2ccccc2c1=O (racemic) [Example 55] with KCNQ 2/3 channels (Homo sapiens, UniProt O43525+O43526), please?
(A) 149
